Test name: self-splicing fitness, log relative to wild type (ln ratio); higher = more splicing; Tetrahymena group I intron in knt gene, E. coli kanamycin selection, DiMSum; sequences stand for … in CUCUCU…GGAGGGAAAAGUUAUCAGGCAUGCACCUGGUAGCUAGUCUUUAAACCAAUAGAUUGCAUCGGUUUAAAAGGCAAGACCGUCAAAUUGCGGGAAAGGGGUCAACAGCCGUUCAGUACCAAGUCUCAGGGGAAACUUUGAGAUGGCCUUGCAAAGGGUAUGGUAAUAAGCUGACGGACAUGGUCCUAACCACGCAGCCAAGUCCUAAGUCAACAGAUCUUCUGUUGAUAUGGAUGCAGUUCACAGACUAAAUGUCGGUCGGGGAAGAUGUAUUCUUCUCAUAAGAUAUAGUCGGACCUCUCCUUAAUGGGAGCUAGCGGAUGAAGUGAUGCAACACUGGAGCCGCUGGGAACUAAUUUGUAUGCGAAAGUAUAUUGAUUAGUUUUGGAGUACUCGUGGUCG;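 further: selection with 25 µg/mL kanamycin versus none on LB agar overnight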
Condition context: 37 °C
Kind request: treat -2 as inclusive, so self-splicing fitness (ln) at -2 or higher is met, anything lower is not met.

Look over these answered cases.
AUGCAGCAAUAUUACGAUGG | not met
CGCUAGCAAUAUUACGAGGA | not met
ACAUAGCAAUAUUACGUAAC | not met
GCGUAGCAAUAUUACGUGAU | met
UUUCAGCAAUAUUACGUGGU | not met
UGUUAGCAAUAUUACGUGCG | met
AGCGAGCAAUAUUACGUAAG | met
UGCUAGCAAUAUUACGAGAG | not met

Reported self-splicing fitness (ln) at or above -2? UUCUAGCAAUAUUACGUAAA
met

Reported self-splicing fitness (ln) at or above -2? CCGCAGCAAUAUUACGUGAG
met

Reported self-splicing fitness (ln) at or above -2? GACCAGCAAUAUUACGGUUA
met

Reported self-splicing fitness (ln) at or above -2? AGGAAGCAAUAUUACGGUUC
not met

Reported self-splicing fitness (ln) at or above -2? AGUUAGCAAUAUUACGUUUG
met

Reported self-splicing fitness (ln) at or above -2? UGACAGCAAUAUUACGGGGG
not met

Reported self-splicing fitness (ln) at or above -2? CGUCAGCAAUAUUACGAUCG
met

Reported self-splicing fitness (ln) at or above -2? CCUUAGCAAUAUUACGUCCA
met

Reported self-splicing fitness (ln) at or above -2? CCUGAGCAAUAUUACGAAAA
not met

Reported self-splicing fitness (ln) at or above -2? UAUAAGCAAUAUUACGCUCG
met

Reported self-splicing fitness (ln) at or above -2? CGCCAGCAAUAUUACGUCCU
not met

Reported self-splicing fitness (ln) at or above -2? GGCUAGCAAUAUUACGCUAG
met

Reported self-splicing fitness (ln) at or above -2? GUGGAGCAAUAUUACGAACG
met

Reported self-splicing fitness (ln) at or above -2? GUGCAGCAAUAUUACGACGU
met

Reported self-splicing fitness (ln) at or above -2? AGUUAGCAAUAUUACGUUCG
met

Reported self-splicing fitness (ln) at or above -2? AUGCAGCAAUAUUACGAUCC
met

====

Reported self-splicing fitness (ln) values for the following sequences.
Test name: self-splicing fitness, log relative to wild type (ln ratio); higher = more splicing; Tetrahymena group I intron in knt gene, E. coli kanamycin selection, DiMSum; sequences stand for … in CUCUCU…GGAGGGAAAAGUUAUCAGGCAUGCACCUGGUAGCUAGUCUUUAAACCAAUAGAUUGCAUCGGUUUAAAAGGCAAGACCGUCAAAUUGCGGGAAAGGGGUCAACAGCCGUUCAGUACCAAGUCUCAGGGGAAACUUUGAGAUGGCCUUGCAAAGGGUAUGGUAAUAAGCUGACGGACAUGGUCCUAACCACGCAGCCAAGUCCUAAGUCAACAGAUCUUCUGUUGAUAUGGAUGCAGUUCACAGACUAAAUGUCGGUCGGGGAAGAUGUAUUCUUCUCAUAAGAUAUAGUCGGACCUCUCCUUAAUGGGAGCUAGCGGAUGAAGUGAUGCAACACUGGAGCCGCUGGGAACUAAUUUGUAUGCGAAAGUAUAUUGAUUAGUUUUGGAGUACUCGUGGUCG
Condition context: 30 °C
Form rule: numeric answer, no unit written next to it.

AGCAAGCAAUAUUACGCCCG | -0.279
CCGGAGCAAUAUUACGGUAC | -2.73
AGUUAGCAAUAUUACGACUA | -0.154

Given the sequence CAGCAGCAAUAUUACGCACC , what is its reported self-splicing fitness (ln)?
-2.66

Given the sequence AAAUAGCAAUAUUACGGGCC , what is its reported self-splicing fitness (ln)?
-2.49

Given the sequence AGCUAGCAAUAUUACGGGAG , what is its reported self-splicing fitness (ln)?
-1.59

====

Reported self-splicing fitness (ln) values for the following sequences.
Test name: self-splicing fitness, log relative to wild type (ln ratio); higher = more splicing; Tetrahymena group I intron in knt gene, E. coli kanamycin selection, DiMSum; sequences stand for … in CUCUCU…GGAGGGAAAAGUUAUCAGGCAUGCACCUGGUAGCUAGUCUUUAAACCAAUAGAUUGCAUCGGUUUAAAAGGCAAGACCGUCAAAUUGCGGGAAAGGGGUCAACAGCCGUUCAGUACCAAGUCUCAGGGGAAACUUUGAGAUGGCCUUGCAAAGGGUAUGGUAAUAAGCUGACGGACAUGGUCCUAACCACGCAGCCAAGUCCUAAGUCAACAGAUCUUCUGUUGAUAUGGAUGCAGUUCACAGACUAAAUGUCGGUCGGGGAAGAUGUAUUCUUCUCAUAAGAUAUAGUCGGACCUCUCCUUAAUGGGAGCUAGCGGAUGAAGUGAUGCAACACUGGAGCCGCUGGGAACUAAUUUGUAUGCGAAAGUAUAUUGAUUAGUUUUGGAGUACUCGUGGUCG
Condition context: 30 °C
Form rule: numeric answer, no unit written next to it.

Answered cases to consult:
AAUAAGCAAUAUUACGUCUC | -1.68
AUUUAGCAAUAUUACGGCUA | -0.795
AAGCAGCAAUAUUACGGGAG | -3.74
UGCAAGCAAUAUUACGCGUG | -3.54
UUGAAGCAAUAUUACGCGUC | -3.32
GCCCAGCAAUAUUACGAGGU | -3.81
UUGAAGCAAUAUUACGUAAA | -1.42

Now for another entry.
Given the sequence GUAAAGCAAUAUUACGCGAC , what is its reported self-splicing fitness (ln)?
-0.509

====

Test name: self-splicing fitness, log relative to wild type (ln ratio); higher = more splicing; Tetrahymena group I intron in knt gene, E. coli kanamycin selection, DiMSum; sequences stand for … in CUCUCU…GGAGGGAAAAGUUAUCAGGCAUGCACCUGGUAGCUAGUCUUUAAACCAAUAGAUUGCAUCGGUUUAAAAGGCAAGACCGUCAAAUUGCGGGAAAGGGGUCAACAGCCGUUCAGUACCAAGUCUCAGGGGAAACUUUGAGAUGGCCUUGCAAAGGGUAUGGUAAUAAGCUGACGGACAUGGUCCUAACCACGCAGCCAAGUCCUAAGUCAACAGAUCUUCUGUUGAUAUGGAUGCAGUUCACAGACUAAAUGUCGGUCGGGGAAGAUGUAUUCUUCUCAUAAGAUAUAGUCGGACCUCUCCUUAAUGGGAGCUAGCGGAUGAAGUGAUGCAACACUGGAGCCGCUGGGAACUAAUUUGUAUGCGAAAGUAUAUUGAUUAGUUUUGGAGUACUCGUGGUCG
Condition context: 30 °C
Would you mind classing the entries by self-splicing fitness (ln)? Ranges: low bin = under -3, mid bin = from -3 up to -1, high bin = -1 and over

Look over these answered cases.
UGCCAGCAAUAUUACGAGGA | mid bin
GAAGAGCAAUAUUACGUGCU | low bin
GGGCAGCAAUAUUACGCAGA | mid bin

Input UCGUAGCAAUAUUACGCUCC ; output its category
mid bin

Input CACAAGCAAUAUUACGACCG ; output its category
high bin

====

Reported self-splicing fitness (ln) values for the following sequences.
Test name: self-splicing fitness, log relative to wild type (ln ratio); higher = more splicing; Tetrahymena group I intron in knt gene, E. coli kanamycin selection, DiMSum; sequences stand for … in CUCUCU…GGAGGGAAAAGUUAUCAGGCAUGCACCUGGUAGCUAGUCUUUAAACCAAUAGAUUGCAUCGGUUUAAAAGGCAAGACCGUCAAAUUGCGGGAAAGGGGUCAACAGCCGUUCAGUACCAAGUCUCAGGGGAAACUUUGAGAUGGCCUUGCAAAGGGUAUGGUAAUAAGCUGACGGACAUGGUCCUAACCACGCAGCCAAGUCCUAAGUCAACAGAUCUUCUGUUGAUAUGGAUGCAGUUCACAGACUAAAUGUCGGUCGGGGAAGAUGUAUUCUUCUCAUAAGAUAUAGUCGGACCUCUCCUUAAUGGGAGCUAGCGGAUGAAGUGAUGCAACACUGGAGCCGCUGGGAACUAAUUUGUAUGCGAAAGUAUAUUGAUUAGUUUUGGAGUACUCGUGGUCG
Condition context: 37 °C
Form rule: numeric answer, no unit written next to it.

Answered cases to consult:
UGUCAGCAAUAUUACGUGCU | -2.23
CGCGAGCAAUAUUACGAAUA | -2.25
CAGUAGCAAUAUUACGGCGC | -0.863
UGCUAGCAAUAUUACGUGUA | -1.26
GUUAAGCAAUAUUACGUGUA | -0.751
CUAAAGCAAUAUUACGUUUU | -2.58

Given the sequence CCGCAGCAAUAUUACGAAUU , what is its reported self-splicing fitness (ln)?
-2.51

Given the sequence ACUCAGCAAUAUUACGGUAC , what is its reported self-splicing fitness (ln)?
-3.01

Given the sequence UCGCAGCAAUAUUACGAACC , what is its reported self-splicing fitness (ln)?
-2.44

Given the sequence GGACAGCAAUAUUACGCUUG , what is its reported self-splicing fitness (ln)?
-0.762

Given the sequence UAAUAGCAAUAUUACGAUUC , what is its reported self-splicing fitness (ln)?
-2.05

Given the sequence UUGAAGCAAUAUUACGGUUU , what is its reported self-splicing fitness (ln)?
-2.69

Given the sequence UCUCAGCAAUAUUACGAACC , what is its reported self-splicing fitness (ln)?
-1.69

Given the sequence AAUGAGCAAUAUUACGUUGU , what is its reported self-splicing fitness (ln)?
-2.89

Ref: the supplement of paper PMC7877785
